# TESTED SYSTEM: human KDR on cells (human, UniProt P35968 20-1356)
# Sequence (P35968 20-1356): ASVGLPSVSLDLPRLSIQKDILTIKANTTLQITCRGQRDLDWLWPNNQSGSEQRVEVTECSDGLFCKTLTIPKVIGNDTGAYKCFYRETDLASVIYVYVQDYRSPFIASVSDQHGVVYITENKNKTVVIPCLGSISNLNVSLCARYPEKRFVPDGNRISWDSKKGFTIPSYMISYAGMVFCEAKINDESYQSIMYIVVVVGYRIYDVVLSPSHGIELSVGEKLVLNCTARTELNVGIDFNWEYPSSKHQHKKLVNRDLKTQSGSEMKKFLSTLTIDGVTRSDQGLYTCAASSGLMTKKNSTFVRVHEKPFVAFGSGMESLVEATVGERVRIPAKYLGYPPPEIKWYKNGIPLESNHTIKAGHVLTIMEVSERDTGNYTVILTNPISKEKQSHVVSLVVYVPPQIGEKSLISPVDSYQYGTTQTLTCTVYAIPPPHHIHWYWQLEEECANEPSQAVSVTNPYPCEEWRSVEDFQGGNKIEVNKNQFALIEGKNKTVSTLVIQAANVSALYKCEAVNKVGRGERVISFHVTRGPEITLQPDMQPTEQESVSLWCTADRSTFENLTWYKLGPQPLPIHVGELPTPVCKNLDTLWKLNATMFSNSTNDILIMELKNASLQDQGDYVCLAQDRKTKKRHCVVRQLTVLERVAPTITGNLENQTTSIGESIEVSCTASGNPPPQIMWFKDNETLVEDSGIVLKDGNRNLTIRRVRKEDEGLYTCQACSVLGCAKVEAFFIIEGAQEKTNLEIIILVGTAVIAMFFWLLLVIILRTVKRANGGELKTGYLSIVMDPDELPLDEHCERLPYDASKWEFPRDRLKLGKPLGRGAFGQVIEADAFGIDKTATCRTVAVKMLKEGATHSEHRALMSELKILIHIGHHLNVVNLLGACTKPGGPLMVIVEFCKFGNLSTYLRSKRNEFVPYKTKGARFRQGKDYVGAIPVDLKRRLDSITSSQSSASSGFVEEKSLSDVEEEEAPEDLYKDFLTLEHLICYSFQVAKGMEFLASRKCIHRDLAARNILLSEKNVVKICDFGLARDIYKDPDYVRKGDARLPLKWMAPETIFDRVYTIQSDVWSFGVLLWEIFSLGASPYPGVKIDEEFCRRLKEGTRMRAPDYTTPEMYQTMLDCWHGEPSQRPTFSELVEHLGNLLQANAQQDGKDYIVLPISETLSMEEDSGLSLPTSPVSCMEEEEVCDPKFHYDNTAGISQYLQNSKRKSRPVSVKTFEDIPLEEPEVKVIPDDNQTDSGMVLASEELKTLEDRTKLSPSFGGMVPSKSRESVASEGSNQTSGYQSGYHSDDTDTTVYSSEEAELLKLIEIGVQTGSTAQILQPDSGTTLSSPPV
# METHOD NOTES: cell-based or functional assay
PARAMETER: % Inhibition (N = 1) of VEGF-C-mediated KDR activity, antibody 10 nM (%)

>>> numeric_readout("33B1 (antibody, V domains shown) VH: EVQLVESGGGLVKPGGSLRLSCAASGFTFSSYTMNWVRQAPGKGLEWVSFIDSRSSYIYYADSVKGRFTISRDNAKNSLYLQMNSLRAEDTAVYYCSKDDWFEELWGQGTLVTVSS VL: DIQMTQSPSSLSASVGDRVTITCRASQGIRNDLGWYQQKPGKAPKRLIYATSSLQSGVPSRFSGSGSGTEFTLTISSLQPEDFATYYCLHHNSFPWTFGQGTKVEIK")
61
>>> numeric_readout("32F4 (antibody, V domains shown) VH: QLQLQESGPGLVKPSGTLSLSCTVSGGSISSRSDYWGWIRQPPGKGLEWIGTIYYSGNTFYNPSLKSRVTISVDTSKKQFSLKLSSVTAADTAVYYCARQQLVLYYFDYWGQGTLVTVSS VL: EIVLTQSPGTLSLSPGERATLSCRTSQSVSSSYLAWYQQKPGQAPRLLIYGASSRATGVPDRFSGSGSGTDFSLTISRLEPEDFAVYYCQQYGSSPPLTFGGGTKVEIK")
76
>>> numeric_readout("33C3 (antibody, V domains shown, Purified fully human monoclonal antibody from XenoMouse hybridoma (IgG2 or IgG4 strains); also called MAb 33C3) VH: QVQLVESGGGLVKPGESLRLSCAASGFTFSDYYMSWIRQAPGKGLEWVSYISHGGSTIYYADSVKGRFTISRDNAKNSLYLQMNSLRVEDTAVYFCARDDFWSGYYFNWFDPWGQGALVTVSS VL: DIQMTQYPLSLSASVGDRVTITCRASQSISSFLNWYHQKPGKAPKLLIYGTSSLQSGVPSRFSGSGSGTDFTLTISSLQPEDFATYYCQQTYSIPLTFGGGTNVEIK")
87
